- Subject Of Test: Inhibitor of nuclear factor kappa-B kinase subunit epsilon (Homo sapiens)
- Condition Info: at 1 µM
Attribute Measured: inhibition (%)

Please review the following examples before continuing.
COc1ccc2ncnc(Nc3ccc(OCc4ccccc4)cc3)c2c1: 1
Cc1cccc(-c2n[nH]cc2-c2ccc3ncccc3n2)n1: -4
Nc1nccc(-c2c(-c3ccc(F)cc3)nn3cc(C(F)(F)F)ccc23)n1: 2
CN(C)CCNC(=O)Nc1ccc(N(C)c2ccnc(Nc3ccc(CS(C)(=O)=O)cc3)n2)cc1: 1
Cc1ccc(NC(=O)CC2CC2)cc1-c1ccc(C(=O)NCC2CC2)cc1: 0
Fc1ccc(-c2cc(-c3c[nH]nc3-c3ccccn3)ccn2)cc1: -1
COc1ccc2ncn(-c3cc(O[C@H](C)c4ccccc4Cl)c(C(N)=O)s3)c2c1: -2

1 = O=C1NC(=O)C(c2cccc(Cl)c2)=C1Nc1ccc(Cl)c(C(=O)O)c1
2 = COc1cc(Nc2ncc3c(C)nc(-c4cccc(Oc5ccccc5)c4)n3n2)cc(OC)c1OC
IN: Please compare: 1 and 2 . Report which one has the smaller inhibition value. Your choice should be expressed through its label.
OUT: 1

###

- Subject Of Test: Serine/threonine-protein kinase TBK1 (Homo sapiens)
- Condition Info: at 1 µM
Attribute Measured: inhibition (%)

CS(=O)(=O)CCNCc1cc(-c2cc3c(Nc4ccc(OCc5cccc(F)c5)c(Cl)c4)ncnc3s2)cs1: 0
COc1cc2ncn(-c3cc(OCc4ccccc4C(F)(F)F)c(C(N)=O)s3)c2cc1OC: 12

A = CN1CCN(CCCNc2nc3ccc(Oc4ccc(NC(=O)Nc5cc(C(F)(F)F)ccc5F)cc4)cc3[nH]2)CC1
B = CN(c1ccc(NC(=O)Nc2ccc(OC(F)(F)F)cc2)cc1)c1ccnc(Nc2cccc(S(N)(=O)=O)c2)n1
IN: Dear colleague, could you let me know whether A or B has the lower recorded inhibition? Thanks. State the label of the item chosen.
OUT: A
(A: 0%, B: 18%)

###

- Subject Of Test: UniProtKB Q12866
- Sequence (Q12866 whole entry): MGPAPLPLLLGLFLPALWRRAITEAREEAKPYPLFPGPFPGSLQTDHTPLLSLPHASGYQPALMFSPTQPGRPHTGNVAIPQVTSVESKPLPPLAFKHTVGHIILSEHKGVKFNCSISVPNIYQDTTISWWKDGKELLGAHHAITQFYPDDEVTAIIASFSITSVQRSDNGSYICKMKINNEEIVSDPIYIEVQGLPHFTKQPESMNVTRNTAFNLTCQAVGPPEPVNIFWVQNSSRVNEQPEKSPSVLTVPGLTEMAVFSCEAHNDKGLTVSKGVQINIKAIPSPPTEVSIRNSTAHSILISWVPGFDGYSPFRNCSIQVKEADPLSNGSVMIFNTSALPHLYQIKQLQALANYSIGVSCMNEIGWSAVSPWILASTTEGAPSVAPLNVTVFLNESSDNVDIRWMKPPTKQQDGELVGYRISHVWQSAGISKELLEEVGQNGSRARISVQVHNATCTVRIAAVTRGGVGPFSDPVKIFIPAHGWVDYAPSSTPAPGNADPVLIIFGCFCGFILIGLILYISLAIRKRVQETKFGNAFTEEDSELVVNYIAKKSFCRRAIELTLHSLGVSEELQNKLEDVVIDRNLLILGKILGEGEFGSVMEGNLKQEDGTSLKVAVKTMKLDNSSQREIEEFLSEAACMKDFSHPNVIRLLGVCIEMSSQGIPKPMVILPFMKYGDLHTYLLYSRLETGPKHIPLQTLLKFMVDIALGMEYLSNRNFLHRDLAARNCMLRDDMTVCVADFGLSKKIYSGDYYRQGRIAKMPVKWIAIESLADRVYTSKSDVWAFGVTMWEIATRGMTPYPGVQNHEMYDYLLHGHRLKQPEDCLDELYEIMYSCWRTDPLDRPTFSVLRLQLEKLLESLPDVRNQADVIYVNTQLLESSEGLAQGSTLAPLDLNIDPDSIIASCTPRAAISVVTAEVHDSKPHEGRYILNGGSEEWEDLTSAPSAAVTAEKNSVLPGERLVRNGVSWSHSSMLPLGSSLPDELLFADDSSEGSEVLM
- Condition Info: at 10 µM
Attribute Measured: inhibition (%)

NS(=O)(=O)c1ccc(N/N=C2\C(=O)Nc3ccc(Cl)cc32)cc1: 2

I = [O-][S+]1CCN(Cc2ccc(-c3ccc4ncnc(Nc5ccc(OCc6ccccc6)c(Cl)c5)c4c3)o2)CC1
II = Cc1ccc2c(-c3ccnc(Nc4ccccc4)n3)c(-c3ccc(F)cc3)nn2n1
IN: Kindly compare I with II and tell me which has the lower inhibition figure. API: response body contains the label of the selected item.
OUT: I
(I: -5%, II: 5%)

P = CCn1c(-c2nonc2N)nc2c(C#CC(C)(C)O)ncc(OCC3CCNCC3)c21
Q = Cc1cc(O)cc(C)c1/C=C/c1cncc(C(=O)N(C)C)c1
IN: For the two items P and Q , which reports the higher inhibition value? Give the label under which the chosen entry appears.
OUT: P

###

- Subject Of Test: UniProt:Q12866
- Condition Info: at 10 µM
Attribute Measured: inhibition (%)

The following molecules have reported results that may help.
COc1ccc2ncn(-c3cc(O[C@H](C)c4ccccc4Cl)c(C(N)=O)s3)c2c1: 86
CCn1c(-c2nonc2N)nc2c(C#CC(C)(C)O)nc(CN3CCCC3)cc21: -6
COc1cc2ncn(-c3cc(OCc4cccs4)c(C(N)=O)s3)c2cc1OC: 4

I = CCS(=O)(=O)c1ccc(OC)c(Nc2nccc(N(C)c3ccc4c(C)n[nH]c4c3)n2)c1
II = CC1=C(C(=O)Nc2ccc3[nH]ncc3c2)C(c2ccc(Cl)c(Cl)c2)CC(=O)N1 (configuration not stated)
III = C#Cc1cccc(Nc2ncnc3ccc(OCCCCNCCS(C)(=O)=O)cc23)c1
IV = NCc1ccc(-n2c(-c3nonc3N)nc3cnccc32)cc1
V = COC(=O)Nc1nc2cc(Oc3cccc(NC(=O)Nc4cc(C(F)(F)F)ccc4F)c3)ccc2[nH]1
IN: Form: Sort by [inhibition] Order [ ascending ] Return value: ordered labels per request.
OUT: V, IV, I, II, III
(V: -10%, IV: -3%, I: -2%, II: 3%, III: 6%)
